In this section we review reported Kd values for a set of binders.
Target: T1, human PDL1-Fc fusion protein (human)
T1 construct: also called human PDL1-Fc recombinant protein
T1 sequence (chain, as listed by the source limits assumed): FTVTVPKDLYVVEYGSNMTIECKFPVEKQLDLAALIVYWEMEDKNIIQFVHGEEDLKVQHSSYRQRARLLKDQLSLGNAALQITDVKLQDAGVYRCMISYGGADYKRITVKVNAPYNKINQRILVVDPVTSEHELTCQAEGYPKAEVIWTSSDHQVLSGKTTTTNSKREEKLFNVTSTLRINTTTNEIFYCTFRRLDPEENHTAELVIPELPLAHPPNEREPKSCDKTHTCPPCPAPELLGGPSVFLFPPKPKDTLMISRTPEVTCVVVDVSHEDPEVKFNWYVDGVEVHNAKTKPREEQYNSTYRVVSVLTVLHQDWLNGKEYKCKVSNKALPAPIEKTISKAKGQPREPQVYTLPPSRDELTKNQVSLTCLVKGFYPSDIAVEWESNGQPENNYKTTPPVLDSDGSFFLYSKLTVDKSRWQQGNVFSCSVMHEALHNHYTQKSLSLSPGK
Assay: BLI (ForteBIO Octet QKe), PDL1-Fc loaded, analyte 100 nM
Measurement Name: Kd

{"Binder": "PDL1-1v3 (VHH, Humanized PDL1-1, His-tagged) VHH: QVQLLESGGGLVQPGGSLRLSCAASGFTVSNSAVSWARQAPGKGLEWVSLIDSNRNTVYAQSVRGRFTISRDNSKNTVYLQMNSLRAEDTAVYYCAKGIWGSTLWGQGTTVTVSS", "Measurement": "18.5 nM"}
{"Binder": "PDL1-1v1 (VHH, Humanized PDL1-1, His-tagged, from 293-F) VHH: EVQLLESGGGLVQPGGSLRLSCAASGFTVSNSAVSWARQAPGKGLEWVSLIDSNRNTVYAQSVRGRFTISRDNSKNTVYLQMNSLRAEDTAVYYCAKGIWGSTLWGQGTTVTVSS", "Measurement": "13.1 nM"}
{"Binder": "PDL1-1v11 (VHH, Humanized PDL1-1, His-tagged) VHH: QVQLQESGGGLVKPGGSLRLSCAASGFTVSNSAVSWARQAPGKGLEWVSLIDSNRNTVYAQSVRGRFTISRDNAKNSVYLQMNSLRAEDTAVYYCAKGIWGSTLWGQGTTVTVSS", "Measurement": "5.86 nM"}
{"Binder": "PDL1-1v10 (VHH, Humanized PDL1-1, His-tagged) VHH: EVQLLESGGGLVQPGGSLRLSCAASGFTVSNSAVSWARQAPGKGLEWVSLIASNRNTVYAQSVRGRFTISRDNSKNTVYLQMNSLRAEDTAVYYCAKGIWGSTLWGQGTTVTVSS", "Measurement": "30.5 nM"}
{"Binder": "PDL1-1v7 (VHH, Humanized PDL1-1, His-tagged) VHH: EVQLLESGGGLVQPGGSLRLSCAASGFTVSNSAVSWARQAPGKGLEWVSLIDSNRNTVYAQSVRGRFTISRDNSKNTVYLQMNSLRPEDTAVYYCAKGIWGSTLWGQGTTVTVSS", "Measurement": "10.9 nM"}
{"Binder": "PDL1-1v9 (VHH, Humanized PDL1-1, His-tagged) VHH: EVQLLESGGGLVQPGGSLRLSCAASGFTVSNSAVSWARQAPGKGLEWVSLIDSNRNTVYAQSVRGRFTISRDNSKNTVYLQMNSLRAEDTAVYYCAKGIWGSTLWGQGTQVTVSS", "Measurement": "12.1 nM"}
{"Binder": "PDL1-1v4 (VHH, Humanized PDL1-1, His-tagged) VHH: EVQLQESGGGLVQPGGSLRLSCAASGFTVSNSAVSWARQAPGKGLEWVSLIDSNRNTVYAQSVRGRFTISRDNSKNTVYLQMNSLRAEDTAVYYCAKGIWGSTLWGQGTTVTVSS", "Measurement": "1320 nM"}
{"Binder": "PDL1-1v18 (VHH, Humanized PDL1-1, His-tagged) VHH: QVQLVESGGGLVKPGGSLRLSCAASGFTVSNSAVSWARQAPGKGLEWVSLIDSNRNTVYAQSVRGRFTISRDNAKNSVYLQMNSLRAEDTAVYYCAKGIWGSTLTGQGTTVTVSS", "Measurement": "4.16 nM"}
{"Binder": "PDL1-1v15 (VHH, Humanized PDL1-1, His-tagged) VHH: QVQLVESGGGLVKPGGSLRLSCAASGFTVSNSAVSWARQAPGKGLEWVSLIDSNRNTVYAQSVRGRFTISRDNAKNTVYLQMNSLRAEDTAVYYCAKGIWGSTLWGQGTTVTVSS", "Measurement": "10.8 nM"}
{"Binder": "PDL1-1v13 (VHH, Humanized PDL1-1, His-tagged) VHH: QVQLVESGGGLVKPGGSLTLSCAASGFTVSNSAVSWARQAPGKGLEWVSLIDSNRNTVYAQSVRGRFTISRDNAKNSVYLQMNSLRAEDTAVYYCAKGIWGSTLWGQGTTVTVSS", "Measurement": "11.4 nM"}
{"Binder": "PDL1-1v8 (VHH, Humanized PDL1-1, His-tagged) VHH: EVQLLESGGGLVQPGGSLRLSCAASGFTVSNSAVSWARQAPGKGLEWVSLIDSNRNTVYAQSVRGRFTISRDNSKNTVYLQMNSLRAEDTAVYYCAKGIWGSTLTGQGTTVTVSS", "Measurement": "5.9 nM"}
{"Binder": "PDL1-1v14 (VHH, Humanized PDL1-1, His-tagged) VHH: QVQLVESGGGLVKPGGSLRLSCAASGFTVSNSAVSWARQAPGKGLEWVSLIDSNRNTVYAQSVRGRFTISRDNVKNSVYLQMNSLRAEDTAVYYCAKGIWGSTLWGQGTTVTVSS", "Measurement": "7.37 nM"}
{"Binder": "PDL1-1v19 (VHH, Humanized PDL1-1, His-tagged) VHH: QVQLVESGGGLVKPGGSLRLSCAASGFTVSNSAVSWARQAPGKGLEWVSLIDSNRNTVYAQSVRGRFTISRDNAKNSVYLQMNSLRAEDTAVYYCAKGIWGSTLWGQGTQVTVSS", "Measurement": "9.86 nM"}
{"Binder": "PDL1-1v16 (VHH, Humanized PDL1-1, His-tagged) VHH: QVQLVESGGGLVKPGGSLRLSCAASGFTVSNSAVSWARQAPGKGLEWVSLIDSNRNTVYAQSVRGRFTISRDNAKNSVYLQMNSLKAEDTAVYYCAKGIWGSTLWGQGTTVTVSS", "Measurement": "14.3 nM"}
{"Binder": "PDL1-1v20 (VHH, Humanized PDL1-1, His-tagged) VHH: QVQLVESGGGLVKPGGSLRLSCAASGFTVSNSAVSWARQAPGKGLEWVSLIASNRNTVYAQSVRGRFTISRDNAKNSVYLQMNSLRAEDTAVYYCAKGIWGSTLWGQGTTVTVSS", "Measurement": "32.5 nM"}
